target-system: T1, 4H2618-bA
T1 chain: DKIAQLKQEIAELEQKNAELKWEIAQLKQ
test-name: two-hybrid library CCNG1;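 also: natural log of median RNA to DNA barcode read ratio; higher means stronger binding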
This listing pairs binders with measured interaction score.
Write the number on its own, no unit after it.

>>> measured_value("DKIAQLKQEIAELEQKNAELKWEIAQLKQ [4H2618-bA]")
0.484
>>> measured_value("DENAQLEQKNAELEQKIAELEWKIAQLKQ [4H1446-bA]")
0.00602
>>> measured_value("DENAQLKQKIAELEQKIAELEWENAQLKQ [4H1828-bA]")
0.132
>>> measured_value("DENAQLEQENAELKQKIAELKWEIAQLEQ [4H1257-bA]")
-0.882
>>> measured_value("DKIAQLKQEIAELEQEIAELKWKNAQLKQ [4H2576-bA]")
-0.0165

Qu. Which measured interaction score value corresponds to DKIAQLEQKNAELEQEIAELKWEIAQLKQ [4H2442-bA] ?
Ans. 0.238

Qu. Which value of interaction score has been reported for DENAQLKQKIAELEQKNAELEWKIAQLEQ [4H1845-bA] in the records?
Ans. -0.329
